test.system: mUSP18 (Mus musculus)
Construct: (46-368); His-tag (N); made in house
Sequence (Q9WTV6 46-368): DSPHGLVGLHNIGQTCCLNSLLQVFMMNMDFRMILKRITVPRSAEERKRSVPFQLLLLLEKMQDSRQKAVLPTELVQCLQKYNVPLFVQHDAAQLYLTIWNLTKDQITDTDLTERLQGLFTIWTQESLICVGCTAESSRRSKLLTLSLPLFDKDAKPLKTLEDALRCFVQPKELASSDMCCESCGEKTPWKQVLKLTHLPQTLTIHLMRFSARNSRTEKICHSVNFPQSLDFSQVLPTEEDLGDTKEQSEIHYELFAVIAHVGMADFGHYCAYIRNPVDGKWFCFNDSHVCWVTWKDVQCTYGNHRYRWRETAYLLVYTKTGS
method: High-throughput screening, ISG15ct-RhoMP, single dose 1.25 µM
Format: biochemical, murine
test.conditions: mUSP18 %inhibition; carboxylic acid (CA) with coupling reagents DIC/HOBT; read-out: %inh CA + DIC/HOBT
assay.endpoint: inhibition at 1.25 µM (%)

(A) CC(C)(C)OC(=O)NCC(=O)O
(B) Cc1onc(-c2ccccn2)c1C(=O)O
(C) Cc1cc(-c2nc(C)sc2CC(=O)O)c(C)s1
(D) CCCC(=O)O
In this exercise, place the 4 molecules in ascending sequence of their recorded inhibition at 1.25 µM. Enter labels, ranked according to the request.
D, A, B, C

(1) O=C(O)Cc1ccc([N+](=O)[O-])cc1
(2) O=C(O)c1csc(-c2ncccn2)n1
Compare the recorded inhibition at 1.25 µM of 1 and 2 ; state which is larger. Output the label that corresponds to your choice.
2
(2: 14.7%, 1: -8.78%)

(I) O=C(O)c1ccc(N2CCCC2)cc1F
(II) Cc1nc(CN2CCCC2C(=O)O)no1 (centres unmarked)
Compare the recorded inhibition at 1.25 µM of I and II ; state which is larger. Output the label that corresponds to your choice.
II
(II: 5.46%, I: -11.3%)

(1) O=C(O)c1ccc2cc3ccccc3cc2c1
(2) Cc1cc(NS(=O)(=O)c2cccc(C(=O)O)c2)no1
(3) COC1CC(C(=O)O)N(C(=O)OCc2ccccc2)C1 (centres unmarked)
Write the entries in order, lowest recorded inhibition at 1.25 µM first. Enter labels, ranked according to the request.
3, 1, 2
(3: -1.5%, 1: 2.22%, 2: 3.97%)
